Test system: Human immunodeficiency virus 2
Assay: Antiviral activity against HIV-2 ROD infected in human MT4 cells assessed as inhibition of virus-induced cytopathicity by MTT assay
Format: functional, organism-based
Conditions: Human immunodeficiency virus 2, ISOLATE ROD
pEC50: −log10 of the molar value.
quantity.name: pEC50

compound | experimental.target | reported.value
COC(=O)c1ccc(NC(=O)CSc2nnccc2-c2cccc3ccccc23)c(Br)c1 | Human immunodeficiency virus 2 | < 3.61
O=C(CSc1nnccc1-c1cccc2ccccc12)c1ccc(Cl)cc1Cl | Human immunodeficiency virus 2 | < 4.26
O=C(CSc1nnccc1-c1cccc2ccccc12)Nc1ccc(Cl)cc1Cl | Human immunodeficiency virus 2 | < 3.64
O=C(CSc1nnccc1-c1cccc2ccccc12)Nc1ccccc1[N+](=O)[O-] | Human immunodeficiency virus 2 | < 3.87
Cc1ccc(NC(=O)CSc2nnccc2-c2cccc3ccccc23)c(Br)c1 | Human immunodeficiency virus 2 | < 3.67
Cc1ccc(NC(=O)CSc2nnccc2-c2cccc3ccccc23)c([N+](=O)[O-])c1 | Human immunodeficiency virus 2 | < 3.61
CC(=O)c1ccc(NC(=O)CSc2nnccc2-c2cccc3ccccc23)c(Br)c1 | Human immunodeficiency virus 2 | < 4.31
O=C(CSc1nnccc1-c1cccc2ccccc12)Nc1cccnc1Cl | Human immunodeficiency virus 2 | < 3.78
Cc1cn([C@H]2C[C@H](N=[N+]=[N-])[C@@H](CO)O2)c(=O)[nH]c1=O [ZIDOVUDINE] | Human immunodeficiency virus 2 | 8.35
O=C(CSc1nnccc1-c1cccc2ccccc12)Nc1ccccc1Cl | Human immunodeficiency virus 2 | < 4.46
O=C(CSc1nnccc1-c1cccc2ccccc12)N1CCCc2ccccc21 | Human immunodeficiency virus 2 | < 4.46
O=C(CSc1nnccc1-c1cccc2ccccc12)Nc1ccccc1F | Human immunodeficiency virus 2 | < 3.62
O=C(CSc1nnccc1-c1cccc2ccccc12)N1CCc2ccccc2C1 | Human immunodeficiency virus 2 | < 4.44
